Tested on: SW-620 colon
Measurement Protocol: NCI-60 one-dose screen, 48 h
Condition Description: 10 µM
About 83,000 compounds went through this panel and 20% of them were active in at least one assay; those are over-represented in the sample as a whole. Activity calls are given as the source filed them. How the source made its calls: active means growth percent below 10; inactive means the rest.
Your answer must be one of the following: y for active, n for inactive

// below: answered molecules
{"Mol": "COc1ccc(Cc2nn(CC(=O)N/N=C/c3ccc(Br)cc3)c(=O)c3c(C)noc23)cc1", "Category Label": "n"}
{"Mol": "COc1ccc(NCc2cn(-c3ccc(C(=O)O)cc3)nc2-c2ccc(F)cc2)cc1C(F)(F)F", "Category Label": "n"}
{"Mol": "Cn1cc(-c2nnc(N)nc2-c2c[nH]c3ccccc23)c2cc(Br)cnc21", "Category Label": "n"}
{"Mol": "Fc1ccc(/C=C/c2nc3ccccc3n3c(-c4ccc(Cl)cc4)nnc23)cc1", "Category Label": "n"}
{"Mol": "Cc1ccc(S(=O)(=O)N2CCN(S(=O)(=O)c3oc(-c4ccccc4)nc3C#N)CC2)cc1", "Category Label": "n"}

Query block: In this assay, the call recorded for O=C1NC(=S)S/C1=C\c1cn(-c2ccccc2)nc1-c1ccc([N+](=O)[O-])cc1 was what?
Result block: n

Query block: Now the molecule O=C(CN1CCN(c2ncnc3c2cnn3-c2ccccc2)CC1)Nc1ccc(Br)cc1
Result block: n

Query block: Now the molecule O=C(c1ccc(Cl)cc1)C(c1c[nH]c2ccccc12)c1c[nH]c2ccccc12
Result block: y

Query block: Now the molecule Cc1ccc(-c2nc(C#N)c(S(=O)(=O)N3CCN(S(C)(=O)=O)CC3)o2)cc1
Result block: y

* * *

System: DU-145 prostate
Measurement Protocol: NCI-60 one-dose screen, 48 h
Condition Description: 10 µM
This is part of a sample that, as a whole, favours compounds with a hit. Of some 83,000 tested, about 20% had one in any assay. The source made the active and inactive calls. How the source made its calls: active means growth percent below 10; inactive means the rest.
Your answer must be one of the following: active, inactive

// below: answered molecules
{"Molecule": "O=[N+]([O-])c1cccc(-c2nnc3c(/C=C/c4ccccc4O)nc4ccccc4n23)c1", "Category Label": "inactive"}
{"Molecule": "O=C1S/C(=C\\c2ccc([N+](=O)[O-])cc2)C(=O)N1CCN1CCCCC1", "Category Label": "inactive"}
{"Molecule": "COc1cccc(O)c1/C=C1\\SCc2cc3c(OC)cccc3[o+]c21", "Category Label": "inactive"}

Query block: In this assay, the call recorded for COc1ccc2[nH]cc(-c3nc(N)nnc3-c3cn(C)c4ncc(Br)cc34)c2c1 was what?
Result block: inactive

Query block: Now the molecule C#C[C@]1(O)CC[C@H]2[C@@H]3CC=C4c5sc(Nc6cc(C)cc(C)n6)nc5CC[C@]4(C)[C@H]3CC[C@@]21C
Result block: inactive

Query block: Now the molecule COc1ccc(-n2c(SCC(=O)NNS(=O)(=O)c3ccccc3)nc3ccc(Cl)cc3c2=O)cc1
Result block: inactive

Query block: Now the molecule Cc1ccc2sc3c(c2c1)Oc1nc[nH]c(=O)c1C3c1cccc(F)c1 (stereo unspecified)
Result block: inactive

Query block: Now the molecule Fc1ccc(/C=C/c2nc3ccccc3n3c(-c4ccc(Cl)cc4)nnc23)cc1
Result block: inactive

Query block: Now the molecule O=C(c1ccccc1)c1ccc2nc(-c3ccccc3Br)[nH]c2c1
Result block: active

Query block: Now the molecule C#C[C@]1(O)CC[C@H]2[C@@H]3CC=C4c5sc(Nc6ccc(N(C)C)cc6)nc5CC[C@]4(C)[C@H]3CC[C@@]21C
Result block: active

Query block: Now the molecule COc1cccc(C(=O)CSc2nc(-c3ccc(OCc4ccccc4)c(OC)c3)c(C#N)c(=O)[nH]2)c1
Result block: inactive

Query block: Now the molecule CC1(C)CC[C@]2(C(=O)O)CC[C@]3(C)C(=CCC4[C@@]5(C)C[C@@H](O)[C@@H]6OC(c7cccc(F)c7)OC[C@@]6(C)C5CC[C@]43C)C2C1 (stereo partly specified)
Result block: inactive

Query block: Now the molecule Cc1ccc2c(c1)C(=O)/C(=C/c1ccc([N+](=O)[O-])cc1)S2
Result block: inactive

Query block: Now the molecule COc1cc(C2CC(c3ccccc3)=Nc3c(N)nc(N)nc3N2)ccc1Oc1nc(NCCO)nc(N2CCOCC2)n1 (stereo unspecified)
Result block: inactive
